# study.system: T1, mouse programmed cell death protein 1 Fc fusion protein (mPD-1-Fc), mPD-1 C60S (aa 25-167) (Mus musculus, UniProt Q02242, stabilised)
# T1 construct: not cleaved; source: Expi293F, purified (Protein A, SEC; dimeric fraction); not shown: Fc (human), C-terminal, kept
# test.summary: SPR; Carterra LSA; Fab from the ammonium sulfate precipitate of the culture supernatant immobilised on a NiHC200M chip; hPD-1 (1-1024 nM) or mPD-1-Fc (4-1024 nM) as analyte, fourfold dilution series, no regeneration; HBS-EP pH 7.4, 25 °C; medians over the spots of a construct, KD = koff/kon
# experimental.parameters: one partner purified

binder	koff [s⁻¹]
toripalimab Fab L.L101K (Fab, V domains shown, as the heavy chain of Sm3; light chain of Sm3 with this change; numbers count from the chain's first residue; source: Brevibacillus, culture supernatant (ammonium sulfate precipitate); not shown: 6xHis, C-terminal, kept; 6xHN, C-terminal, kept) VH: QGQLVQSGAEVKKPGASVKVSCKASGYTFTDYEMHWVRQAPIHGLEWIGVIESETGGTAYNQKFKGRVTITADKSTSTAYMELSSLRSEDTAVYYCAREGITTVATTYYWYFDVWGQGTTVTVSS VL: DVVMTQSPLSLPVTLGQPASISCRSSQSIVHSNGNTYLEWYLQKPGQSPQLLIYKVSNRFSGVPDRFSGSGSGTDFTLKISRVEAEDVGVYYCFQGSHVPKTFGQGTKLEIK	0.0212
toripalimab Fab L.N58Y (Fab, V domains shown, as the heavy chain of Sm3; light chain of Sm3 with this change; numbers count from the chain's first residue; source: Brevibacillus, culture supernatant (ammonium sulfate precipitate); not shown: 6xHis, C-terminal, kept; 6xHN, C-terminal, kept) VH: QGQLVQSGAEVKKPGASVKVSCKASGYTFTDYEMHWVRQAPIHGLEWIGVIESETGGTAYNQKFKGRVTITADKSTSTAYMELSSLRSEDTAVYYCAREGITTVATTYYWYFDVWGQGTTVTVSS VL: DVVMTQSPLSLPVTLGQPASISCRSSQSIVHSNGNTYLEWYLQKPGQSPQLLIYKVSYRFSGVPDRFSGSGSGTDFTLKISRVEAEDVGVYYCFQGSHVPLTFGQGTKLEIK	0.00916
toripalimab Fab L.P100V (Fab, V domains shown, as the heavy chain of Sm3; light chain of Sm3 with this change; numbers count from the chain's first residue; source: Brevibacillus, culture supernatant (ammonium sulfate precipitate); not shown: 6xHis, C-terminal, kept; 6xHN, C-terminal, kept) VH: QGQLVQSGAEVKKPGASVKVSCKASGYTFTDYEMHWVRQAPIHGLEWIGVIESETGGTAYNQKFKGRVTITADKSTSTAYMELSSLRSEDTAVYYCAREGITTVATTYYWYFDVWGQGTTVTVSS VL: DVVMTQSPLSLPVTLGQPASISCRSSQSIVHSNGNTYLEWYLQKPGQSPQLLIYKVSNRFSGVPDRFSGSGSGTDFTLKISRVEAEDVGVYYCFQGSHVVLTFGQGTKLEIK	0.000479
toripalimab Fab H.F64A (Fab, V domains shown, heavy chain of Sm3 with this change; numbers count from the chain's first residue; as the light chain of Sm3; source: Brevibacillus, culture supernatant (ammonium sulfate precipitate); not shown: 6xHis, C-terminal, kept; 6xHN, C-terminal, kept) VH: QGQLVQSGAEVKKPGASVKVSCKASGYTFTDYEMHWVRQAPIHGLEWIGVIESETGGTAYNQKAKGRVTITADKSTSTAYMELSSLRSEDTAVYYCAREGITTVATTYYWYFDVWGQGTTVTVSS VL: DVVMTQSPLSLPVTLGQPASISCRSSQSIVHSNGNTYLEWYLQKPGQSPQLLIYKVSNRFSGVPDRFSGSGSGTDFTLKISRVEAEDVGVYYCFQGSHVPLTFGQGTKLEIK	0.00193
toripalimab Fab L.L101D (Fab, V domains shown, as the heavy chain of Sm3; light chain of Sm3 with this change; numbers count from the chain's first residue; source: Brevibacillus, culture supernatant (ammonium sulfate precipitate); not shown: 6xHis, C-terminal, kept; 6xHN, C-terminal, kept) VH: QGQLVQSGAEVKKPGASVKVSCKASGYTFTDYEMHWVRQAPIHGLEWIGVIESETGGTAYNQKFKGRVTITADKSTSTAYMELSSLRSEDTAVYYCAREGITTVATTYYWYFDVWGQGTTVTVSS VL: DVVMTQSPLSLPVTLGQPASISCRSSQSIVHSNGNTYLEWYLQKPGQSPQLLIYKVSNRFSGVPDRFSGSGSGTDFTLKISRVEAEDVGVYYCFQGSHVPDTFGQGTKLEIK	0.0046
toripalimab Fab L.V99K (Fab, V domains shown, as the heavy chain of Sm3; light chain of Sm3 with this change; numbers count from the chain's first residue; source: Brevibacillus, culture supernatant (ammonium sulfate precipitate); not shown: 6xHis, C-terminal, kept; 6xHN, C-terminal, kept) VH: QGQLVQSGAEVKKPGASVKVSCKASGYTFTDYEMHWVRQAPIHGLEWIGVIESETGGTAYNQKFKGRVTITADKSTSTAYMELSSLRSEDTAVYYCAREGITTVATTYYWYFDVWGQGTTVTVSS VL: DVVMTQSPLSLPVTLGQPASISCRSSQSIVHSNGNTYLEWYLQKPGQSPQLLIYKVSNRFSGVPDRFSGSGSGTDFTLKISRVEAEDVGVYYCFQGSHKPLTFGQGTKLEIK	0.00439
toripalimab Fab L.V99E (Fab, V domains shown, as the heavy chain of Sm3; light chain of Sm3 with this change; numbers count from the chain's first residue; source: Brevibacillus, culture supernatant (ammonium sulfate precipitate); not shown: 6xHis, C-terminal, kept; 6xHN, C-terminal, kept) VH: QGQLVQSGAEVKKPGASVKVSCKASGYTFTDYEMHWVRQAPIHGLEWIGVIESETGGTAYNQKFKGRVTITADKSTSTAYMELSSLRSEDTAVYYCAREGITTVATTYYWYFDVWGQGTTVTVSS VL: DVVMTQSPLSLPVTLGQPASISCRSSQSIVHSNGNTYLEWYLQKPGQSPQLLIYKVSNRFSGVPDRFSGSGSGTDFTLKISRVEAEDVGVYYCFQGSHEPLTFGQGTKLEIK	0.00742
toripalimab Fab L.P100R (Fab, V domains shown, as the heavy chain of Sm3; light chain of Sm3 with this change; numbers count from the chain's first residue; source: Brevibacillus, culture supernatant (ammonium sulfate precipitate); not shown: 6xHis, C-terminal, kept; 6xHN, C-terminal, kept) VH: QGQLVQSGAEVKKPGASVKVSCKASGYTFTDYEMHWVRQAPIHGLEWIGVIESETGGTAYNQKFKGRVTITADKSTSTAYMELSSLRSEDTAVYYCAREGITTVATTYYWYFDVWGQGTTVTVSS VL: DVVMTQSPLSLPVTLGQPASISCRSSQSIVHSNGNTYLEWYLQKPGQSPQLLIYKVSNRFSGVPDRFSGSGSGTDFTLKISRVEAEDVGVYYCFQGSHVRLTFGQGTKLEIK	0.000274
toripalimab Fab L.V30A (Fab, V domains shown, as the heavy chain of Sm3; light chain of Sm3 with this change; numbers count from the chain's first residue; source: Brevibacillus, culture supernatant (ammonium sulfate precipitate); not shown: 6xHis, C-terminal, kept; 6xHN, C-terminal, kept) VH: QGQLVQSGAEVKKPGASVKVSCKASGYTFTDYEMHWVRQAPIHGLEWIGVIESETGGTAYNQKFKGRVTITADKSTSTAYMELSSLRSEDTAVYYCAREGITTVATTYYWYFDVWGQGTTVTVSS VL: DVVMTQSPLSLPVTLGQPASISCRSSQSIAHSNGNTYLEWYLQKPGQSPQLLIYKVSNRFSGVPDRFSGSGSGTDFTLKISRVEAEDVGVYYCFQGSHVPLTFGQGTKLEIK	0.00954
toripalimab Fab L.P100Q (Fab, V domains shown, as the heavy chain of Sm3; light chain of Sm3 with this change; numbers count from the chain's first residue; source: Brevibacillus, culture supernatant (ammonium sulfate precipitate); not shown: 6xHis, C-terminal, kept; 6xHN, C-terminal, kept) VH: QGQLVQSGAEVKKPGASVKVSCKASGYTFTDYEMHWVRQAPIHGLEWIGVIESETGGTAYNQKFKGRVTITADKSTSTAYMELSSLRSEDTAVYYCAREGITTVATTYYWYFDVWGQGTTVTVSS VL: DVVMTQSPLSLPVTLGQPASISCRSSQSIVHSNGNTYLEWYLQKPGQSPQLLIYKVSNRFSGVPDRFSGSGSGTDFTLKISRVEAEDVGVYYCFQGSHVQLTFGQGTKLEIK	9.77e-05
